- Test target: human recombinant COX-2 (Homo sapiens)
- Construct: purchased Cayman Chemical Co., Ann Arbor, MI
- Sequence (P35354 18-604): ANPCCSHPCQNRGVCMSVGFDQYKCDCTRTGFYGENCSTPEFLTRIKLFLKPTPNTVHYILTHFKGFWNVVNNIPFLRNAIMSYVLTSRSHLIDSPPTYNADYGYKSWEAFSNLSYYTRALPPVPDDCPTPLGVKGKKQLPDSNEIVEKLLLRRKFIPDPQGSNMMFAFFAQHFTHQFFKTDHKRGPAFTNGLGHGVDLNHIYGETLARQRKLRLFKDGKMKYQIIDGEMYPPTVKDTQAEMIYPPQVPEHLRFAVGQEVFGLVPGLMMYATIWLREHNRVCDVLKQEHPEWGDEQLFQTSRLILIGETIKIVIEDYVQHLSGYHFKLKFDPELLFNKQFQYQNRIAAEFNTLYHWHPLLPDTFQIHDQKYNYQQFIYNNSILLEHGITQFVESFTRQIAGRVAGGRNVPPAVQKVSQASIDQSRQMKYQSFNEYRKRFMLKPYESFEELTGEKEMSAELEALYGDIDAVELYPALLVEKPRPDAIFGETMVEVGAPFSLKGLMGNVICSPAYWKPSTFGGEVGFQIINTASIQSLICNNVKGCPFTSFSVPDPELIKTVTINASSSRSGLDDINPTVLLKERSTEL
- Protocol text: Inhibition of COX-2 activity (Cayman COX Inhibitor Screening Assay kit)
- Assay type: biochemical
- Condition summary: read-out: Inhibition, COX-2, Inhibition (%) 200 μM
- Method: The effect of compounds on COX-1 and COX-2 inhibition was measured using a commercial kit provided by Cayman (Cayman Chemical Co., Ann Arbor, MI), applying the instructions of the manufacturer. The kit uses ovine COX-1 and human recombinant COX-2 enzymes. […] The assay measures PGF2a produced by SnCl2 reduction of COX-derived PGH2.
Assay readout: inhibition at 200 µM (%)

>>> print(df.to_string())
                                   compound                             test_target         assay_readout  readout_units  reported_result
0   Cc1cnc(N=C2NC(=O)C(=Cc3cccc(Br)c3)S2)s1  human recombinant COX-2 (Homo sapiens)  inhibition at 200 µM              %                0
1  COc1ccc2cc([C@H](C)C(=O)O)ccc2c1 [Naproxen, reference compound]  human recombinant COX-2 (Homo sapiens)  inhibition at 200 µM              %               17
2  Cc1cnc(N=C2NC(=O)C(=Cc3cccc(Cl)c3Cl)S2)s1  human recombinant COX-2 (Homo sapiens)  inhibition at 200 µM              %                0
3  Cc1cnc(N=C2NC(=O)C(=Cc3ccc([N+](=O)[O-])cc3)S2)s1  human recombinant COX-2 (Homo sapiens)  inhibition at 200 µM              %                0
